Reported values of GI50 for individual entries
- Tested on: NCI-H226
- run_description: NCI tumour cell line growth inhibition, 48 h
The source made the active and inactive calls. Rule as the data show it: active = GI50 up to about 1.1 µM and inactive = higher.

See these solved cases before continuing.
compound="Cc1cc(C)c(N[S+]([O-])c2cccc([N+](=O)[O-])c2)c(C)c1 (centres undefined)" measured_parameter=GI50 measured_result="> 100 µM (inactive)"
compound=Cc1ccc2c(c1)/C(=N/Nc1ccccc1[N+](=O)[O-])C(=O)N2 measured_parameter=GI50 measured_result="8.41 µM (inactive)"
compound="CC1(C)c2ccccc2C(C)(C)C(C(=O)Nc2ccccc2)C1C(=O)O (centres undefined)" measured_parameter=GI50 measured_result="> 100 µM (inactive)"

Turning now to a further record.
Query :: What value of measured GI50 is listed for Cc1ccc(S(=O)(=O)NC(=O)Nc2nc(Cl)cc(Cl)n2)cc1 ?
Result :: > 100 µM (inactive)

---

- Tested on: UACC-257
- run_description: NCI tumour cell line growth inhibition, 48 h
Calls of active or inactive are those of the source. Cut-off read from the data, not from the text of the source: active = GI50 up to about 1.1 µM and inactive = higher.
measured_parameter: GI50

Query :: Tell me the measured GI50 of Cc1ccccc1N(C)S(=O)(=O)c1ccccc1[N+](=O)[O-] , please.
Result :: 57 µM (inactive)

---

- Tested on: ACHN
- run_description: NCI tumour cell line growth inhibition, 48 h
Activity calls are given as the source filed them. No stated cut-off is given here; in the data, active = GI50 up to about 1.1 µM and inactive = higher.
Please reply with one of these outcomes: active, inactive

Below are worked cases with known answers.
compound=C#CCOCn1cc(C)c(=O)[nH]c1=O assigned_label=inactive
compound=O=C(O)Cc1ccc2nc(COC(=O)c3ccccc3)sc2c1 assigned_label=inactive

Query :: Recorded call for Fc1ccccc1C1SCc2nc3cc4ccccc4cc3n21 (stereo not drawn) ?
Result :: inactive

Query :: Hi team, can someone confirm the assay call for O=c1c(-c2ccccc2F)coc2cc(F)ccc12 ?
Result :: inactive

Query :: Given CN(CCO)c1nc(=O)c2c([nH]1)CCC2 , state the outcome it received in this test.
Result :: inactive

Query :: Would you mind telling me which call this test gave NCCCNC1(c2cc3ccccc3s2)CCCCC1 ?
Result :: inactive

Query :: Entry Cc1ccc(C(=O)N/N=C(\N=N\c2cccc([N+](=O)[O-])c2)c2ccc(N(CCC#N)CCC#N)cc2C)cc1 : call = ?
Result :: inactive

Query :: Kindly provide the recorded test outcome for the following compound: COc1ccc2c(c1)CCCc1c-2nc2ccccc2c1N
Result :: inactive

Query :: # fetch the recorded call for Cn1c(=O)n2n(c1=O)Cc1cccc3cccc(c13)C2 here
Result :: inactive

Query :: Can you look up the reported call for Fc1cccc(F)c1C1SCc2nc3cc(Cl)ccc3n21 (stereo not drawn) for me?
Result :: inactive

---

- System: NCI/ADR-RES
- run_description: NCI tumour cell line growth inhibition, 48 h
The source made the active and inactive calls. Rule as the data show it: active = GI50 up to about 1.1 µM and inactive = higher.
Item-by-item account of GI50

Example entries and their recorded answers appear below.
molecule=CN(C)NC1=NS(=O)(=O)c2cc3c(cc2S1)N(N(C)C)C(=O)c1cc2c(cc1N(N(C)C)C3=O)SC(NN(C)C)=NS2(=O)=O measured_parameter=GI50 measured_result="> 10 µM (inactive)"
molecule=CCC(=O)NC(Nc1cc(C)on1)(C(F)(F)F)C(F)(F)F measured_parameter=GI50 measured_result="> 100 µM (inactive)"
molecule="CC1(C)CC23C4COC(=O)C2CCC1C3CC4=O (centres undefined)" measured_parameter=GI50 measured_result="7.21 µM (inactive)"

Query :: Value lookup for GI50; key = Clc1ccc2c(NCCNc3ccnc4cc(Cl)ccc34)ccnc2c1
Result :: 30.8 µM (inactive)

---

- System: EKVX
- run_description: NCI tumour cell line growth inhibition, 48 h
The source made the active and inactive calls. Cut-off read from the data, not from the text of the source: active = GI50 up to about 1.1 µM and inactive = higher.
Known GI50 of a selection of compounds

Guide cases for GI50, answers given:
compound=O=C(Cc1csc2[n+]1C(=O)/C(=C/c1ccc(Cl)cc1)S2)Nc1ccccc1 tested_on=EKVX measured_parameter=GI50 measured_result="16.3 µM (inactive)"
compound="N#CNC1=NC(CCCC(=O)Nc2cccc([N+](=O)[O-])c2)=C(c2nc3ccccc3[nH]2)C(N)N1 (stereo not drawn)" tested_on=EKVX measured_parameter=GI50 measured_result="> 100 µM (inactive)"

Note: attention shifts to another entry.
Query :: Kindly state the measured GI50 obtained for O=C(CC(c1ccccc1)C1C(=O)NC(=S)NC1=O)c1ccc([N+](=O)[O-])cc1 (stereo not drawn) with EKVX.
Result :: 31.8 µM (inactive)

---

- Test system: UACC-62
- run_description: NCI tumour cell line growth inhibition, 48 h
The source made the active and inactive calls. Cut-off read from the data, not from the text of the source: active = GI50 up to about 1.1 µM and inactive = higher.
Recorded GI50 values for a group of compounds are listed next.

compound="C=C(C)C1Cc2c(cc3c(c2O)c(=O)c2ccccc2n3C)O1 (stereo not given)" tested_on=UACC-62 measured_parameter=GI50 measured_result="2.34 µM (inactive)"
compound=CC1=C(C(=O)Nc2c(C)cccc2C)C(c2ccc3c(c2)OCO3)C(C(=O)Nc2c(C)cccc2C)=C(C)N1 tested_on=UACC-62 measured_parameter=GI50 measured_result="2.7 µM (inactive)"
compound=Cn1nc(-c2ccccc2)c(N=[N+]=[N-])cc1=O tested_on=UACC-62 measured_parameter=GI50 measured_result="> 100 µM (inactive)"
compound=CN(C)CCNC(=O)Cn1cc([N+](=O)[O-])c(=O)c2ccccc21 tested_on=UACC-62 measured_parameter=GI50 measured_result="> 100 µM (inactive)"

Query :: State the recorded GI50 for this entry: COC(=O)/C1=C/c2c([nH]c3ccccc23)/C(C(=O)OC)=C\c2c1[nH]c1ccccc21 [CAULERPIN]
Result :: 19.9 µM (inactive)

Query :: What does the data say about its GI50? Entry: O=c1c2cc(I)ccc2nc(-c2cccs2)n1-c1ccc(O)cc1
Result :: 13.1 µM (inactive)

Query :: May I ask what GI50 has been recorded for O=C1c2ccccc2C2=Cc3ccccc3C(O)N12 (stereo not given) ?
Result :: 24.9 µM (inactive)

Query :: Requested read-out: GI50. Entry: Cc1nc2ccccc2c(=O)n1-c1ccccc1F
Result :: > 100 µM (inactive)

Query :: Dear colleague, I am looking for the recorded GI50 of the following compound: COc1cc(/C=C/C(=O)Oc2ccc(NC(C)=O)cc2)ccc1C(=O)OCc1ccccc1
Result :: 69.2 µM (inactive)

Query :: I would be grateful if you could share the reported GI50 for Cc1c(Cl)nc(Cl)nc1Cl .
Result :: 4 µM (inactive)

Query :: // returns reported GI50 for input CCCCCCCCCCCCC/C=C/[C@H]1[C@@H](C(=O)OC)N1[S+]([O-])c1ccc(C)cc1 (stereo not given in full)
Result :: > 100 µM (inactive)

Query :: Form field: reported GI50 of O=c1cccc2n1C[C@H]1CNC[C@H]2C1
Result :: > 100 µM (inactive)

Query :: Entry O=c1c(-c2ccccc2F)coc2cc(F)ccc12 : reported GI50 = ?
Result :: > 100 µM (inactive)

Query :: Please give the measured GI50 for this compound: C=CCNC1=NC(=O)C(CC(=O)Nc2cccc(Cl)c2)S1 (stereo not given)
Result :: > 100 µM (inactive)

Query :: # lookup: GI50 of COc1ccc2c(c1)CCCc1c-2nc2ccccc2c1N
Result :: 12.3 µM (inactive)

Query :: Please look up its GI50: CC1(C)OC(CCO)CN1C(=O)OCc1ccccc1 (stereo not given)
Result :: > 100 µM (inactive)

Query :: May I ask what GI50 has been recorded for Cc1cc(Cl)ccc1/N=C1/NC(=O)C(CC(=O)Nc2cccc(C)c2C)S1 (stereo not given) ?
Result :: 25.9 µM (inactive)

Query :: Look up GI50 for this compound: CCCC(N)C(=O)c1ccccc1 (stereo not given)
Result :: > 100 µM (inactive)

Query :: Which GI50 is listed for CC1CC2=Nc3ccccc3NC(c3ccccc3)C2=C(O)O1 (stereo not given) ?
Result :: 93.8 µM (inactive)

Query :: // query GI50 value for entry COc1cccc2c(SCC(=O)Nc3ccccc3-c3ccccc3NC(=O)CSc3c4ccccc4nc4c(OC)cccc34)c3ccccc3nc12
Result :: 38.6 µM (inactive)

Query :: Please give the measured GI50 for this compound: CCCCN(CCCC)C(=O)C(=O)C(C#N)c1ccc(C)cc1 (stereo not given)
Result :: > 100 µM (inactive)

Query :: Consider the compound N#CNC1=NC(CCCC(=O)Nc2cccc([N+](=O)[O-])c2)=C(c2nc3ccccc3[nH]2)C(N)N1 (stereo not given) and give its measured GI50.
Result :: > 100 µM (inactive)

Query :: Looking for the measured GI50 of Cc1ccc2[nH]c3c(c2c1)C1CCC(C(C)(C)C)CC1C1C(=O)N(c2ccc(Oc4ccccc4)cc2)C(=O)C31 (stereo not given) , can you help?
Result :: 47.1 µM (inactive)

Query :: Sample CC1C=CC(=O)C(n2cc(F)c(=O)[nH]c2=O)O1 (stereo not given) — what was its GI50?
Result :: 16.2 µM (inactive)

Query :: Dear colleague, I am looking for the recorded GI50 of the following compound: Sc1nn2c(Cc3ccccc3)nnc2s1
Result :: > 100 µM (inactive)

Query :: Look up GI50 for this compound: CCOC(=O)c1cnc2[nH]c(=O)c3ccccc3n2c1=O
Result :: > 100 µM (inactive)

Query :: What does the data say about its GI50? Entry: COc1ccccc1NCC(=O)Nn1c(C)nc2ccc(S(=O)(=O)Nc3ccccc3OC)cc2c1=O
Result :: 63.4 µM (inactive)

Query :: Which GI50 is reported for this compound? C=CC[C@H]1C[C@@]2(C)OC[C@H](C(C)C)N2C1=O
Result :: > 100 µM (inactive)
